# inhibition listing for each entry below
# target.of.assay: Dual specificity protein phosphatase 6 (Homo sapiens) (UniProt Q16828)
# Sequence (Q16828 whole entry, looked up): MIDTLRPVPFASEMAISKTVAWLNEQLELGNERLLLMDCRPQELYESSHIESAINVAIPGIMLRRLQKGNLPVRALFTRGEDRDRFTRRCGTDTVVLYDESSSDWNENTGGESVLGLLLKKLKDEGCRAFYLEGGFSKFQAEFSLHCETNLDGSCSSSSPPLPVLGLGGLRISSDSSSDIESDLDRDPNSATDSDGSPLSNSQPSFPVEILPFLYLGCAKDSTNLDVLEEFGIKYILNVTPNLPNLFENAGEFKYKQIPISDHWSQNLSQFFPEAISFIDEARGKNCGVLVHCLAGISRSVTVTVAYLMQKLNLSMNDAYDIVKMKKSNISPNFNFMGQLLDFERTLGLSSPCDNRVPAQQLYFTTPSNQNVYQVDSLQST
# method: DUSP6 inhibitors restoring Erk phosphorylation by chemical complementation, primary imaging in DUSP6-transfected HeLa (AID 609);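 note: phospho-Erk level distribution per well compared with pooled transfected vehicle control wells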
# assay.context: HeLa MKP-3 transfected, phospho-Erk imaging KS statistic; at 10 µM; hits give high values; cells stimulated with TPA for 15 min
Calls of active or inactive are those of the source.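 Rule for the calls: active = compounds giving at least 50% inhibition in the cell-based MKP-3 phosphatase rescue imaging test; inactive = the rest.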

Record excerpt, results attached:
# molecule, target.of.assay, inhibition
data = [
    ("N#Cc1nc(COc2ccccc2)oc1N1CCCC1", "Dual specificity protein phosphatase 6 (Homo sapiens) (UniProt Q16828)", "4.37% (inactive)"),
    ("CCCCCOc1ccccc1C(=O)NCC(=O)O", "Dual specificity protein phosphatase 6 (Homo sapiens) (UniProt Q16828)", "-0.584% (inactive)"),
    ("COc1cc(S(=O)(=O)N2CCN(c3ccc(F)cc3)CC2)ccc1Cl", "Dual specificity protein phosphatase 6 (Homo sapiens) (UniProt Q16828)", "-7.67% (inactive)"),
]

// switching to the query molecule
Data request: Kindly state the measured inhibition obtained for Cc1cc(C(=O)O)c(CSc2ncn[nH]2)o1 with Dual specificity protein phosphatase 6 (Homo sapiens) (UniProt Q16828).
Data returned: -5.81% (inactive)

Measured values drawn from PubChem BioAssay for this set.
